// Growth hormone secretagogue receptor type 1 (Homo sapiens, UniProt Q92847) AC50 records

CCN1CCCC1CNC(=O)c1cc(S(=O)(=O)CC)ccc1OC (centres undefined) [SULTOPRIDE] ... > 30 µM
O=C1Nc2ccc(Cl)cc2C(c2ccccc2Cl)=NC1O (centres undefined) ... > 30 µM
O=C(c1cc(Cc2n[nH]c(=O)c3ccccc23)ccc1F)N1CCN(C(=O)C2CC2)CC1 ... > 30 µM

Would you kindly look at the next entry?
Look up AC50 for this compound: `CC(=O)[C@H]1CC[C@H]2[C@@H]3C[C@H](C)C4=CC(=O)CC[C@]4(C)[C@H]3[C@@H](O)C[C@]12C`
> 10 µM
